Assay: Pharmacokinetic studies in mice (IV and PO)
Assay type: in vivo, female CD-1 mice
Settings: female, CD-1, plasma; mouse, PO 5 mg kg^−1 vs IV 1 mg kg^−1; read-out: Bioavailability (F%)
REPORTED_METRIC: bioavailability (%)

{"SMILES": "CN(C)CCn1ccc2c(ccn2Cc2ccc(Cl)c(Cl)c2)c1=O", "REPORTED_METRIC": "bioavailability", "QUANTITATIVE_READOUT": 54}

---

System: CYP3A4, CYP2D6, CYP2C9, CYP2C19, CYP1A2
Experiment: Inhibition of CYP450, five isoform panel
Assay type: in vitro ADME
Conditions: human, CYP450 isoform inhibition kit (BD Biosciences), 3A4, 2D6, 2C9, 2C19, 1A2, read-out: % inhibition of CYP450 isoforms
REPORTED_METRIC: inhibition at 10 µM

{"SMILES": "CN(C)CCn1ccc2c(ccn2Cc2ccc(F)c(Br)c2)c1=O", "RESULT": "≤ 10%"}

meta.source: paper PMC7887271
